- measurement_target: delF508-CFTR-HRP (Homo sapiens, UniProt P13569, DEL508-508)
- Sequence (P13569 with tags, fused parts or gaps DEL508-508): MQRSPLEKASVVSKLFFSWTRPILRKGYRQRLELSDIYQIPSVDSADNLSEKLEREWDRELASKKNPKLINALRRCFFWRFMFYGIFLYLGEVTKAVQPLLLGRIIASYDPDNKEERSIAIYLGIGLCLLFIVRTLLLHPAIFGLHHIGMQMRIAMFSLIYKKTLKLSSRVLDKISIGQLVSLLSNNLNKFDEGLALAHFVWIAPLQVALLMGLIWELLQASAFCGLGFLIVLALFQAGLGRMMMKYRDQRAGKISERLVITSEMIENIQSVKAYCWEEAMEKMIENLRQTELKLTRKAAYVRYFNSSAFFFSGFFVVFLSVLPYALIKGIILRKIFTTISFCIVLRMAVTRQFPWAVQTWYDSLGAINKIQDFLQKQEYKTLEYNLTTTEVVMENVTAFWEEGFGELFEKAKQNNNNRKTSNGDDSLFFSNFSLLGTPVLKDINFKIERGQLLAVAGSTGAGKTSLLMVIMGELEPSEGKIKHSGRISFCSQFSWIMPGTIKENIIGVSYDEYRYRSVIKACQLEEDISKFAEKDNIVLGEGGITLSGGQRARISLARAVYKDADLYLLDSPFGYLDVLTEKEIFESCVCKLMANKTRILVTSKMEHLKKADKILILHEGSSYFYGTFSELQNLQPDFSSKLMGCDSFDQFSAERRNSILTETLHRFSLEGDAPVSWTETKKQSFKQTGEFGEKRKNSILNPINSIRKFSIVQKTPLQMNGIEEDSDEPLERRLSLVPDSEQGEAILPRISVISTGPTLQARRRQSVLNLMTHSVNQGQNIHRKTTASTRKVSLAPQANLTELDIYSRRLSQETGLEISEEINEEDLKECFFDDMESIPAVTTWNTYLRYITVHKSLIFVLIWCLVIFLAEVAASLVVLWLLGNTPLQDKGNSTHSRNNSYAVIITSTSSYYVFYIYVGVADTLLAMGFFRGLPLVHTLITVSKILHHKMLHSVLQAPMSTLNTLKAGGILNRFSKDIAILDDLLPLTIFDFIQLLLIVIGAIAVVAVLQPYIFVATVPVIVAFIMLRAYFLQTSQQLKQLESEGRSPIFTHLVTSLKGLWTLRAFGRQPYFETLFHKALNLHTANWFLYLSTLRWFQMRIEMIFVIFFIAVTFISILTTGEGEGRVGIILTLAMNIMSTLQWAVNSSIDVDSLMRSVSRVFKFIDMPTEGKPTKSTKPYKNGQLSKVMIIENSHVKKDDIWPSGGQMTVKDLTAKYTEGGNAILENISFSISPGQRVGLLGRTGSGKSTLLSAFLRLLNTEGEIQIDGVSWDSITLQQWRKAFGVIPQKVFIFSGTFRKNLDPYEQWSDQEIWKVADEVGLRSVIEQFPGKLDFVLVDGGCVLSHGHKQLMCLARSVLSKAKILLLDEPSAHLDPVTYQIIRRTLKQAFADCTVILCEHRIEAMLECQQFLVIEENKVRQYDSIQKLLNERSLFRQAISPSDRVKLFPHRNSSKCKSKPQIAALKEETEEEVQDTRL
- protocol_notes: Measurement of delF508-CFTR-HRP surface expression in CFBE41o- cells (HRP luminescence)
- measurement_context: mean of at least two replicates
quantity_measured: EC50 (µM)

>  <compound>
Cc1ccc(C2CCCCC2)c(OC2(C(=O)NS(=O)(=O)c3cccc(N4CC5(CCN5)C4)n3)CC2)c1

>  <quantity_measured>
EC50

>  <measure_unit>
µM

>  <result_number>
3.39

$$$$
>  <compound>
Cc1ccc(C2CCCCC2)c(OC2(C(=O)NS(=O)(=O)c3cccc(N4CCC(C)(NC(=O)NC5CC5)CC4)n3)CC2)c1

>  <quantity_measured>
EC50

>  <measure_unit>
µM

>  <result_number>
2.59

$$$$
>  <compound>
Cc1ccc(C2CCCCC2)c(OC2(C(=O)NS(=O)(=O)c3cccc(N4CCC(C)(N)C4)n3)CC2)c1 (centres unmarked)

>  <quantity_measured>
EC50

>  <measure_unit>
µM

>  <result_number>
2.58

$$$$
>  <compound>
Cc1ccc(C2CCCCC2)c(OC2(C(=O)NS(=O)(=O)c3cccc(N4C[C@@H]5C[C@@H]5[C@H](N)C4)n3)CC2)c1 (relative stereo)

>  <quantity_measured>
EC50

>  <measure_unit>
µM

>  <result_number>
3.98

$$$$
>  <compound>
Cc1ccc(C2CCCCC2)c(OC2(C(=O)NS(=O)(=O)c3cccc(N4CCN(c5ccccc5)CC4)n3)CC2)c1

>  <quantity_measured>
EC50

>  <measure_unit>
µM

>  <result_number>
0.65

$$$$

1. Cc1ccc(C2CCC3(CCC3)OC2)c(OC2(C(=O)NS(=O)(=O)c3cccc(N4CCC(C)(O)CC4)n3)CC2)c1 (single isomer, unassigned) [Example 11-4-2]
2. Cc1ccc(OCCC2CCCCC2)c(OC2(C(=O)NS(=O)(=O)c3cccc(N4CC[C@H](O)C4)n3)CC2)c1
3. O=C(NS(=O)(=O)c1cccc(N2CC[C@H](O)C2)n1)C1(Oc2cc(Cl)ccc2-c2cccc(OC(F)(F)F)c2)CC1
Problem: Order the records, beginning with the lowest EC50 and ending with the highest. Give the order by naming the labels one after another as requested.
Solution: 2, 3, 1
